Target: hnAChR α7/ric3 (Homo sapiens, UniProt P36544)
Construct: expressed in transfected cells
Sequence (P36544 23-502): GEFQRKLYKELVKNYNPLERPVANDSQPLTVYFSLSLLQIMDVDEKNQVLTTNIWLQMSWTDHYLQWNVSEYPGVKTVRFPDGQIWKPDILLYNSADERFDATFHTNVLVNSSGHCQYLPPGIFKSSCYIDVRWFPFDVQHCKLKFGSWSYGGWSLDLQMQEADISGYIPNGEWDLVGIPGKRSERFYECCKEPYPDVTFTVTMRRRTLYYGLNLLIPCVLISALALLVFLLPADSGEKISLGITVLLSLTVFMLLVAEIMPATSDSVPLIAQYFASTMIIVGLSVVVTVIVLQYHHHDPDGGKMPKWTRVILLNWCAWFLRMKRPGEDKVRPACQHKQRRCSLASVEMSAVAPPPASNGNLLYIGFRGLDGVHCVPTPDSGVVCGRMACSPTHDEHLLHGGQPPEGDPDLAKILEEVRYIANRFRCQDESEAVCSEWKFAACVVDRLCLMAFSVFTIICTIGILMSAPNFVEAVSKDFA
Experiment: IonFlux HT electrophysiological recording of hnAChR α7/ric3 currents, inhibition of ACh (200 μM, EC80) peak current
Type: cell-based
Method: All wells included a final DMSO concentration of 0.33% including all control wells. The solutions for recording hnAChR α7/ric3 currents were: All recordings were obtained from a holding potential of −60 mV. Compounds were assayed using bump-in protocol. […] Peak inward currents in response to the ACh additions in the presence of increasing concentrations of compound were measured. […] All data were first exported to an Excel compatible data file and then analyzed using Graph Pad Prism software.
Measured pIC50 accompanies every entry in the list below.
Just so you know, pIC50 here is -log10 of the concentration in molar units; reply with that number alone.

Cc1nocc1S(=O)(=O)N1CCN(c2ccc(F)cc2)CC1 ... 5.66

Then there is this molecule:
# lookup: pIC50 of Cc1nocc1S(=O)(=O)NC1(c2ccccc2)CCCCC1
5.24
